Origin of the recorded values: ChEMBL document CHEMBL1201862

# Test system: MDA-N
# assay-details: NCI tumour cell line growth inhibition, 48 h
The source made the active and inactive calls. Cut-off read from the data, not from the text of the source: active = GI50 up to about 1.1 µM and inactive = higher.
property-measured: GI50

CC1(C)C2CC3C(C)(C2)C31c1cc(Cl)ccc1N (centres undefined)
12.2 µM (inactive)
COC(=O)NC1C(C)OC(OC2C/C=C(/C)C3C=CC4C(OC5CC(OC6CC(OC7CC(O)C(O)C(C)O7)C(OC7CC(O)C(OC)C(C)O7)C(C)O6)C(O)C(C)O5)C(C)CC(C)C4C3(C)C(=O)C3=C(O)C4(CC(C)C(CO)=CC4/C=C\2C)OC3=O)CC1(C)[N+](=O)[O-] (centres undefined)
14 µM (inactive)
Cc1ccc2cc3c(ccc4ccccc43)c3c2c1CC3
> 100 µM (inactive)
COc1cc2c(c(OC)c1O)-c1ccc(OC)c(=O)cc1[C@@H](NC(=O)C(F)(F)F)CC2
0.0262 µM (active)
C1CNCCN2CCCNCCN(C1)CC2
> 100 µM (inactive)
CCOC(=O)CCN1C(=O)c2ccc(NC(=O)C(=O)O)cc2S1(=O)=O
> 100 µM (inactive)
Cc1oc(N)c(S(=O)(=O)/C(C#N)=C/c2ccccc2[N+](=O)[O-])c1C
20.7 µM (inactive)
COC1=CC(=O)c2c(c(COC(C)=O)cn2C)C1=O
0.0942 µM (active)
[N-]=[N+]=NC(c1cn(C2CC(O)C(CO)O2)c(=O)[nH]c1=O)C(Cl)I (centres undefined)
> 100 µM (inactive)
O=C(O)/C(=C\c1ccc(O)cc1)c1cccc2ccccc12
> 100 µM (inactive)
COc1c2cc(C(C)(C)C)cc1Cc1cccc(c1O)Cc1cc(C(C)(C)C)cc(c1OC)Cc1cccc(c1O)Cc1cc(C(C)(C)C)cc(c1OC)Cc1cccc(c1O)C2
> 100 µM (inactive)
C1CN2CCNCCN(CCN1)CC2
> 100 µM (inactive)
CC/C(=C\c1ccc(OC)cc1)c1ccc(OC)cc1
> 100 µM (inactive)
COc1ccc2oc3c(ccc[n+]3C)c(=O)c2c1
> 100 µM (inactive)
Cn1c(=O)c2c(nc(N)n2C2OC(CO)C(O)C2O)n(C)c1=O (centres undefined)
> 100 µM (inactive)
CCCCCCCCCCNC1CC(OC2CC(O)(C(O)CO)Cc3c(O)c4c(c(O)c32)C(=O)c2c(OC)cccc2C4=O)OC(C)C1O (centres undefined)
1.5 µM (inactive)
CCC1=C(CC2NCCc3ccccc32)CC2c3cc(OC)c(OC)cc3CCN2C1 (centres undefined)
0.452 µM (active)
CC(C)[Si](OC1=C(C(=O)N(C)c2ccccc2Cl)CCC1)(C(C)C)C(C)C
19.8 µM (inactive)
c1ccc([P+](c2ccccc2)(c2ccccc2)c2ccc([P+](c3ccccc3)(c3ccccc3)c3ccccc3)cc2)cc1
56.1 µM (inactive)

----------
Item-by-item account of GI50
# System: MDA-MB-231
# assay-details: NCI tumour cell line growth inhibition, 48 h
Calls of active or inactive are those of the source. No stated cut-off is given here; in the data, active = GI50 up to about 1.1 µM and inactive = higher.
property-measured: GI50

COC(=O)c1ccc2[nH]c3c(c2c1)CC(=O)Nc1ccccc1-3
12.4 µM (inactive)
[N-]=[N+]=NC(c1cn(C2CC(O)C(CO)O2)c(=O)[nH]c1=O)C(Cl)I (stereo unspecified)
> 100 µM (inactive)
COc1ccc2c(=O)c(O)c(-c3ccc(OC)c(OC)c3)oc2c1
4.8 µM (inactive)
Nc1c2ccccc2nc2ccc3c(=O)cc(-c4ccccc4)oc3c12
1.14 µM (inactive)
COc1nc(Cl)nc(N[C@H](C)c2c3ccccc3cc3ccccc23)n1
13.9 µM (inactive)
Nc1nc(N)c2c3c(cnc2n1)CC(c1ccccc1)CC3 (stereo unspecified)
21.4 µM (inactive)

----------
# System: NCI-H522
# assay-details: NCI tumour cell line growth inhibition, 48 h
The source made the active and inactive calls. No stated cut-off is given here; in the data, active = GI50 up to about 1.1 µM and inactive = higher.
property-measured: GI50

C(#CC1(Nc2ccccc2)CCN(Cc2ccccc2)CC1)C1(Nc2ccccc2)CCN(Cc2ccccc2)CC1
24.8 µM (inactive)
C=C(C(=O)O)C1CCC(CC/C=C(\C)CC/C=C(\C)CCC=C(C)C)CO1 (stereo not given)
20.7 µM (inactive)
CC/C=C\C=C/C(=O)N/C=C/CCC
17.5 µM (inactive)
COc1cc(C2c3cc4c(cc3[C@@H](Nc3ccccc3)C3CO[C@@H](OC)[C@H]23)OCO4)cc(OC)c1O (stereo not given in full)
6.58 µM (inactive)
CC(NC(=O)N(C)C)NC(=O)N(C)C
> 10 µM (inactive)
CCOC(=O)c1c2c(n3ccccc13)C(=O)c1ccccc1C2=O
> 100 µM (inactive)
CC(C)=CC[C@]12CCN(C)[C@H]1N(S(=O)(=O)c1ccccc1)c1ccccc12
15.8 µM (inactive)
C#C[C@]1(O)CC[C@H]2[C@@H]3CCc4cc(OC(=O)c5cccc6cc7ccccc7nc56)ccc4[C@H]3CC[C@@]21C
15.5 µM (inactive)
CC(C)c1cccc(C(=O)NCCN(C)C)c1[N+](=O)[O-]
> 100 µM (inactive)
O=C1NC2(CCCC2)C(=O)C12CCCC2
> 100 µM (inactive)

----------
# System: MDA-MB-435
# assay-details: NCI tumour cell line growth inhibition, 48 h
The source made the active and inactive calls. Rule as the data show it: active = GI50 up to about 1.1 µM and inactive = higher.
Possible outcomes: 1.0 (active), 0.0 (inactive)

N#C/C(N)=C(C#N)/N=C/Nc1ccccc1N
0.0
CN(C)/N=N/c1ccc2[nH]c(=O)[nH]c2c1
0.0
COc1ccc(CC(CO)NC(=O)OCc2ccccc2)cc1Oc1ccc(CC(CO)NC(=O)OCc2ccccc2)cc1 (stereo not given)
0.0
O=c1oc2cc(/N=C/c3ccccc3Cl)ccc2c2ccccc12
0.0
CCC(=O)OC1=C(c2ccccc2)Sc2ccc(Cl)cc2-n2cccc21
0.0
CC(=O)O[C@H]1C(=O)[C@@]2(C)C(C(OC(=O)c3ccccc3)[C@]3(O)C[C@H](OC(=O)C(OC(=O)CCCC(=O)NCCCN(C)C)C(NC(=O)c4ccccc4)c4ccccc4)C(C)=C1C3(C)C)C1(OC(C)=O)COC1C[C@@H]2O (stereo not given in full)
1.0
CCCCCc1cc(CCCC)sc1-c1ccco1
0.0
O=C1C=Cc2c(I)sc(I)c21
0.0
O=c1oc2c/c(=C\c3ccccc3)c(=O)c3cccc1c3-2
0.0
[N-]=[N+]=NC(c1cn(C2CC(O)C(CO)O2)c(=O)[nH]c1=O)C(Cl)I (stereo not given)
0.0
CCCCCC(=O)N[C@@H](c1ccco1)[C@@H](O)C(=O)O[C@H]1C[C@@]2(O)[C@@H](OC(=O)c3ccccc3)[C@@H]3[C@]4(OC(C)=O)CO[C@@H]4C[C@H](O)[C@@]3(C)C(=O)[C@H](OC(C)=O)C(=C1C)C2(C)C
1.0
CC(C)=CCN1c2ccccc2NC(=O)CC1C (stereo not given)
0.0
Cc1ccc2cc3c(ccc4ccccc43)c3c2c1CC3
0.0
COC(=O)c1cc(=O)n(-c2ccc3nn(C)nc3c2)cc1C(=O)OC
0.0
COC(=O)/C=C1/OC(c2ccc(OC)cc2)=C(Cl)C1=O
0.0
COc1c(-c2ccc(F)cc2)oc2c(CC(=O)O)cccc2c1=O
0.0
CC/C(=C\c1ccc(OC)cc1)c1ccc(OC)cc1
0.0
COc1cc2c(cc1OC)C(=O)N(c1ccc(O)cc1)C2=O
0.0
COc1c(N2CCCCC2)c2c(=O)c3ccccc3oc2c2cc(C)oc12
0.0
O=S1(=O)OCCOS(=O)(=O)C1F
0.0

----------
# Tested on: UACC-62
# assay-details: NCI tumour cell line growth inhibition, 48 h
Calls of active or inactive are those of the source. No stated cut-off is given here; in the data, active = GI50 up to about 1.1 µM and inactive = higher.
Item-by-item account of GI50
property-measured: GI50

CCc1cc(Cc2cc(CC)c(NC(=O)C3=CC(=O)CC(c4ccc(OC)cc4)O3)c(CC)c2Cl)c(Cl)c(CC)c1NC(=O)C1=CC(=O)CC(c2ccc(OC)cc2)O1 (stereo not given)
23.8 µM (inactive)
CCOC(=O)CCN1C(=O)c2ccc(NC(=O)C(=O)O)cc2S1(=O)=O
> 100 µM (inactive)
CC(C)=CCC/C(C)=C/CC/C(C)=C/CC/C(C)=C/C=C/C=C(\C)CC/C=C(\C)CC/C=C(\C)CCC=C(C)C
> 100 µM (inactive)
Nc1ccc(-c2nc3ccc(F)cc3s2)cc1
16.6 µM (inactive)
CCN1CCN(c2nc3ccccc3c3c2CCOc2ccccc2-3)CC1
17.7 µM (inactive)
Cc1nc(Nc2ccccc2Cl)sc1C(=O)CC(=O)C(N)=O
35.1 µM (inactive)
O=C(Nc1ccc(I)cc1C(=O)NCCO)c1cccs1
> 100 µM (inactive)
C[n+]1[n-]o/c(=N\N=O)c1-c1cc(-c2/c(=N/N=O)o[n-][n+]2C)cc(-c2/c(=N\N=O)o[n-][n+]2C)c1
> 100 µM (inactive)
N#Cc1nc(C2CC2)oc1N
> 100 µM (inactive)
Cc1ccc(S(=O)(=O)c2ccccn2)cc1
> 100 µM (inactive)
CC1OC(OC2C(O)C(O)C(O)C(O)C2O)C(N)CC1NC(=N)C(=O)O (stereo not given)
> 100 µM (inactive)
COC(=O)c1ccc2[nH]c3c(c2c1)CC(=O)Nc1ccccc1-3
> 100 µM (inactive)
CCC(=O)OC1=C(c2ccccc2)Sc2ccc(Cl)cc2-n2cccc21
8.73 µM (inactive)
O=C(C#Cc1cnc(O)nc1O)c1ccccc1Cl
16.4 µM (inactive)
COc1ccc2oc3c(ccc[n+]3C)c(=O)c2c1
> 100 µM (inactive)
N#CC1(Cc2ccccc2Cl)c2ccccc2C=CN1C(=O)c1ccccc1 (stereo not given)
> 100 µM (inactive)
CCC1(C)NC(c2cnccn2)=NN1c1ccc(Cl)cc1 (stereo not given)
> 100 µM (inactive)
CCOC(=O)C(C)OC(=O)c1ccc(C)cc1 (stereo not given)
> 100 µM (inactive)
CC1=CC(C)(C)N=C2SC(c3ccc(Cl)cc3)=NN12
59.6 µM (inactive)
CC(=O)NC1C(O)C(O)C(CO)OC1n1ncc(=O)[nH]c1=O (stereo not given)
> 100 µM (inactive)
